- SYSTEM_UNDER_TEST: BACE1 endogenous to primary cortical neurons from E16.5 CD1 mice (mouse, UniProt P56818 46-501)
- Sequence (P56818 46-501): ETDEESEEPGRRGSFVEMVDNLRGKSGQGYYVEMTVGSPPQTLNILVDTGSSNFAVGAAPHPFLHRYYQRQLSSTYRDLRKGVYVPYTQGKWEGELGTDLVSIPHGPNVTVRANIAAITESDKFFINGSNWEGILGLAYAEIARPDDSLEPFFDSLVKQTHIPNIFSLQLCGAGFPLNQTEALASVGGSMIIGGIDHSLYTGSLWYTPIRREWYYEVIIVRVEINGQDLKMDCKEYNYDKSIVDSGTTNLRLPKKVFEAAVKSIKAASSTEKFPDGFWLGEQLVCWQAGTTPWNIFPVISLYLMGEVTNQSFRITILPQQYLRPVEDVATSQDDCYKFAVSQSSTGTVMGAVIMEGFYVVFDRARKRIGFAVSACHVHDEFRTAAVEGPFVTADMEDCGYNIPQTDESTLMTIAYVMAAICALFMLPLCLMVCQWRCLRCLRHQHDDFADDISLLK
- EXPERIMENT_NOTES: cell-based or functional assay
MEASURED_ATTRIBUTE: max % inhibition, Abeta x-40 in mouse cortical neurons (%)
Response body: numeric value in %, unit text excluded.

Recorded results for 4 binders are shown here.
Ask: Annotate the binder 5572 (antibody, V domains shown) VH: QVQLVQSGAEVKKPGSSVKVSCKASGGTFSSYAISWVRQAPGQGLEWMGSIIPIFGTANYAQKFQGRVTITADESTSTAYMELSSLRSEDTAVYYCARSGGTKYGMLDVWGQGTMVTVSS VL: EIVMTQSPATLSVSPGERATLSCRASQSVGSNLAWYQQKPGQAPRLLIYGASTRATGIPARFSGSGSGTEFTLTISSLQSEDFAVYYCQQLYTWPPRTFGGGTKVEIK with its measured max % inhibition, Abeta x-40 in mouse cortical neurons.
Result: 73

Ask: Identify measured max % inhibition, Abeta x-40 in mouse cortical neurons corresponding to 5643 (antibody, V domains shown) VH: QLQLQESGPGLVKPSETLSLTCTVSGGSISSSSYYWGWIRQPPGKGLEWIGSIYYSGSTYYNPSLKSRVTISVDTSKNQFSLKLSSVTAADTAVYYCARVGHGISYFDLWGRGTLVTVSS VL: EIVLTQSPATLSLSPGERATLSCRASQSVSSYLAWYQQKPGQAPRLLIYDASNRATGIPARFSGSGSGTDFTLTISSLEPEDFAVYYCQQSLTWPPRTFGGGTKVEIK
Result: 60

Ask: Quickly give me recorded max % inhibition, Abeta x-40 in mouse cortical neurons for 5897 (antibody, V domains shown) VH: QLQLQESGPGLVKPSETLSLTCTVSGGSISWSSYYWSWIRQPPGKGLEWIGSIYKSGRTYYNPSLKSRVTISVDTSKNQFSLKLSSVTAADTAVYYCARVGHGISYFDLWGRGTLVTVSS VL: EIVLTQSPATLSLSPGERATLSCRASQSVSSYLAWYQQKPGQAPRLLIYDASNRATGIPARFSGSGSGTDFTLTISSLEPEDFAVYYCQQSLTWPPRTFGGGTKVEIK
Result: 62

Ask: # return recorded max % inhibition, Abeta x-40 in mouse cortical neurons for input 5260 (antibody, V domains shown) VH: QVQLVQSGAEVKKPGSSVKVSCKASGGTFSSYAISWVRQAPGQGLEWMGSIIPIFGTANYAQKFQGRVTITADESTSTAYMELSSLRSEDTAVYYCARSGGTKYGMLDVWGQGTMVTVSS VL: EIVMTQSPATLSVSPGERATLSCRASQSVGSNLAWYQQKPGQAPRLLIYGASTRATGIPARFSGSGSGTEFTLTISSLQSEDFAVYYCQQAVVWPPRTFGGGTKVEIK
Result: 74

Further cases:
Ask: Give recorded max % inhibition, Abeta x-40 in mouse cortical neurons. 5883 (antibody, V domains shown) VH: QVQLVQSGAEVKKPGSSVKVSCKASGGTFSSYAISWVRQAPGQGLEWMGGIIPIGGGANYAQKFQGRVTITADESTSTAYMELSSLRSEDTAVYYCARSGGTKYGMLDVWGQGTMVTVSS VL: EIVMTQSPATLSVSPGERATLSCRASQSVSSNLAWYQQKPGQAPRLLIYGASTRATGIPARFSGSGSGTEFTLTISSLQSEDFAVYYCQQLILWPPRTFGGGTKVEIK
Result: 82
